# METHOD DESCRIPTION: Inducers of the Endoplasmic Reticulum Stress Response (ERSR) in human glioma: Validation (AID 504836); note: 0% is about no effect
# EXPERIMENTAL CONDITIONS: human glioma cells, ER stress response reporter; series mostly up to 38.3 µM
# Method: Primary protein unfolding takes place for many diseases, including diabetes and hypoxia, , and triggers a reaction in the cells called ER stress response (ERSR). ). […] Stable transfected human glioma cell line, U87-MG, are dispensed at density 1000 cells/well into Greiner white solid bottom 1536-well assay plates. […] The assay plates will be incubated for 16 hours and developed by adding appropriate quantities of the Promega Bright Glo reagent. […]
The source made the active and inactive calls. Calls come from the whole dose curve; as a rule, active = well fitted curve in the direction sought with a large enough effect; inconclusive = small, poorly fitted or top-dose-only effect, or effect the other way, or another doubt; inactive = no such curve, though single readings can be large or run the other way.
ENDPOINT NAME: outcome

Examples with answers:
>>> df
                                   molecule    result
0  COc1cc2nc(N3CCN(C(=O)C4CCCO4)CC3)nc(N)c2cc1OC (stereo not drawn)  inactive
1  O=C(C1CCCCC1)N1CC(=O)N2CCc3ccccc3C2C1 (stereo not drawn)  inactive
2  CC(CN1c2ccccc2Sc2ccccc21)N(C)C (stereo not drawn)  inactive
3  CCCN1C[C@H](CSC)C[C@@H]2c3cccc4[nH]cc(c34)C[C@H]21  inactive

Dear colleague, please send me the reported outcome for `CC(C)=CCOc1c2occc2cc2ccc(=O)oc12` when you can. inactive

Hello, please tell me recorded outcome for this one: CSc1ccc2c(c1)N(CCC1CCCCN1C)c1ccccc1S2 (stereo not drawn) inactive

Return reported outcome. Input molecule: `NC(=O)OCC(COC(N)=O)c1ccccc1` inactive

Please report the measured outcome for `O=c1c(O)c(-c2ccc(O)c(O)c2)oc2cc(O)cc(O)c12` inactive

Fill in reported outcome for this entry: `OCCN(CCO)c1nc(N2CCCCC2)c2nc(N(CCO)CCO)nc(N3CCCCC3)c2n1` inactive

State its outcome for this molecule: `CC/C(=C(\c1ccccc1)c1ccc(OCCN(C)C)cc1)c1ccccc1` inactive

Tell me measured outcome for COc1ccc(C(CN(C)C)C2(O)CCCCC2)cc1 (stereo not drawn) please. inactive

###

# METHOD DESCRIPTION: qHTS of pediatric cancer cell lines to identify multiple opportunities for drug repurposing: Confirmatory screen for SJ-GBM2 cells (AID 1347116);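 note: 48 hour compound exposure; nearly all actives have a fitted effect of over 60% in size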
# EXPERIMENTAL CONDITIONS: SJ-GBM2 glioblastoma cells, viability; series mostly up to 45.9 µM
# Experimental: Drug repurposing or repositioning has been offered as a strategy for drug development in oncology programs. […] [1] Shen, M et al. Quantitative high-throughput phenotypic screening of pediatric cancer cell lines identifies multiple opportunities for drug repurposing. […] Cells were assayed in growth media at a density of 500-1,000 cells/well. […] After a 15 min incubation at room temperature, samples were analyzed for luminescence intensity using a ViewLux High-throughput CCD imager equipped with clear filters.
Results filed as inconclusive are left out. Activity calls are given as the source filed them. Calls follow the shape of the dose curve; as a rule, active = well fitted cell-killing curve with a large enough effect; inconclusive = small, poorly fitted or top-dose-only effect, or effect the other way; inactive = no such curve, though single readings can be large or run the other way.
One label from this list, please: true (1) = active, false (0) = inactive

COMPOUND	CLASS ASSIGNMENT
O=P1(NCCCl)OCCCN1CCCl (centres undefined)	false (0)
C[C@@H]1[C@@H](CC(C[C@H]2O[C@@H]3O[C@]4(C)CC[C@@H]5[C@H](C)CC[C@@H]([C@H]2C)[C@@]35OO4)C[S+](=O)([O-])c2ccc(COC(=O)N(C)C)cc2)O[C@@H]2O[C@]3(C)CC[C@H]4[C@H](C)CC[C@@H]1[C@@]24OO3 (some centres undefined)	true (1)
O=c1[nH]c2ccccc2n1CCCN1CCC(n2c(=O)[nH]c3cc(Cl)ccc32)CC1	true (1)

Which result was noted for this compound in the test: `N[C@@H](Cc1ccc(N(CCCl)CCCl)cc1)C(=O)O` true (1)
